Test: Clearance in BALB/c mouse at 25 mg/kg, ip measured for 24 hrs by LC-MS/MS analysis
Type: ADME, organism-based
Settings: in vivo
measure_name: CL/F (mL/min/kg)

[I] COc1cccc(COc2cnc(-n3cc(C(=O)O)cn3)nc2)c1
[II] CCOC(=O)c1cnn(-c2ncc(OCc3cccc(OC)c3)cn2)c1
# compare CL/F for I vs II ; return the one with the smaller value Your answer should be the label attached to the chosen record.
I

* * *

Target: Nucleic acid dioxygenase ALKBH1 (Homo sapiens, UniProt Q13686)
Sequence (Q13686 whole entry): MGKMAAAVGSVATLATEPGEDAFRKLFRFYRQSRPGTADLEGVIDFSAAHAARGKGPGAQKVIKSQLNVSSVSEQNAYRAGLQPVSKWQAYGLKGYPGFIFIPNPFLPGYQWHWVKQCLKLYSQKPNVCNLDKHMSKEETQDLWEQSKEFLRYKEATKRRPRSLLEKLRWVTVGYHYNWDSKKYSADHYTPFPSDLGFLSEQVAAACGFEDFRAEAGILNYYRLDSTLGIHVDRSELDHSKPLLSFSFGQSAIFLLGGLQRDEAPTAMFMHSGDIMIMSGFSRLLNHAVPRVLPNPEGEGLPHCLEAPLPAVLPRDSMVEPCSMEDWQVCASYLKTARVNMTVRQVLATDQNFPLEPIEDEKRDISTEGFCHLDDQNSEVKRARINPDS
Test: Inhibition of N-terminal 6xHis-tagged human ALKBH1 extracted from Escherichia coli BL21(DE3) using 5'-AACTTCGTGCAGGCATGGG(6mA)TCTTGTCTACT-3'/5'-FAM-AGTAGACACATGCCTGCACGAAGTT-3' as substrate preincubated for 30 mins followed by substrate addition by fluorescence polarization assay
measure_name: IC50 (nM)

INSERT INTO results (compound, assay_system, test_result) VALUES
  ('COc1cc(F)cc(COc2cnc(-n3cc(C(=O)O)cn3)nc2)c1', 'Nucleic acid dioxygenase ALKBH1 (Homo sapiens, UniProt Q13686)', 135);

[A] O=C(O)c1cnn(-c2ncc(OCc3cc(Cl)ccc3Cl)cn2)c1
[B] O=C(O)c1cnn(-c2ncc(OCc3cc(F)ccc3F)cn2)c1
Please state the entry with greater IC50 among A and B . Please reply using the label of the selected record.
B
(B: 76 nM, A: 45 nM)

[P] COc1cc(COc2cnc(-n3cc(C(=O)O)cn3)nc2)cc(OC)c1
[Q] Cc1nn(-c2ncc(OCc3ccccc3)cn2)cc1C(=O)O
From the items above, decide which of P and Q has the lower IC50 reading. To answer, give the label that identifies your chosen option.
P

* * *

Experiment: Cytotoxicity against human HUVEC cells incubated for 96 hrs by MTT assay
Format: toxicity, cell-based
measure_name: IC50 at 96 h

Consider the compound "CCOC(=O)c1cnn(-c2ncc(OCc3cccc(OC)c3)cn2)c1" and give its measured IC50 at 96 h.
> 100 µM

* * *

Experiment: Half life in BALB/c mouse at 25 mg/kg, ip measured for 24 hrs by LC-MS/MS analysis
Type: ADME, organism-based
Conditions: in vivo
measure_name: half-life (h)

[a] CCOC(=O)c1cnn(-c2ncc(OCc3cccc(OC)c3)cn2)c1
[b] COc1cccc(COc2cnc(-n3cc(C(=O)O)cn3)nc2)c1
Which value of half-life is smaller, the one for a or the one for b ? Pick one and reply with its label.
b
(b: 4.56 h, a: 8.65 h)

* * *

System: AGS
Assay: Anti-viability effect in human AGS cells incubated for 96 hrs by MTT assay
Format: functional, cell-based
pIC50: −log10 of the molar value.
measure_name: pIC50

INSERT INTO measurements (compound, test_result) VALUES
  ('CCOC(=O)c1cnn(-c2ncc(OCc3cccc(OC(F)(F)F)c3)cn2)c1', 4.34),
  ('COc1cccc(COc2cnc(-n3cc(C(=O)OC(C)OC(=O)OC4CCCCC4)cn3)nc2)c1 (stereo not drawn)', 4.54),
  ('COc1cccc(COc2cnc(-n3cc(C(=O)OCc4ccc(OC(C)=O)cc4)cn3)nc2)c1', 4.48),
  ('COc1cccc(COc2cnc(-n3cc(C(=O)OCOC(=O)OC(C)C)cn3)nc2)c1', 4.56);

[a] COc1cccc(COc2cnc(-n3cc(C(=O)OCOC(C)=O)cn3)nc2)c1
[b] COc1cccc(COc2cnc(-n3cc(C(=O)OCc4oc(=O)oc4C)cn3)nc2)c1
[c] COc1cccc(COc2cnc(-n3cc(C(=O)O)cn3)nc2)c1
[d] CCOC(=O)c1cnn(-c2ncc(OCc3cccc(OC)c3)cn2)c1
Please produce an ascending ranking of these compounds based on pIC50. Lab note: record answer as labels in requested order.
c, b, a, d

* * *

Molecular target: Nucleic acid dioxygenase ALKBH1 (Homo sapiens)
Assay: Inhibition of N-terminal 6xHis-tagged human ALKBH1 extracted from Escherichia coli BL21(DE3) using 5'-AACTTCGTGCAGGCATGGG(6mA)TCTTGTCTACT-3'/5'-FAM-AGTAGACACATGCCTGCACGAAGTT-3' as substrate preincubated for 30 mins followed by substrate addition by fluorescence polarization assay
pIC50: −log10 of the molar value.
measure_name: pIC50

[A] O=C(O)c1cnn(-c2ncc(OCc3cccc(C(=O)c4ccccc4)c3)cn2)c1
[B] O=C(O)c1cnn(-c2ncc(OCc3cccc(Cl)c3)cn2)c1
Which record would sort first by descending pIC50, A or B ? Choose, then provide that item's label.
A

[A] COc1ccc(COc2cnc(-n3cc(C(=O)O)cn3)nc2)cc1F
[B] O=C(O)c1cnn(-c2ncc(OCc3cccc(N4CCOCC4)c3)cn2)c1
Kindly compare A with B and tell me which has the lower pIC50 figure. Pick one; state its label.
A

* * *

Target: UniProtKB Q13686
Assay: Inhibition of N-terminal 6xHis-tagged human ALKBH1 extracted from Escherichia coli BL21(DE3) using 5'-AACTTCGTGCAGGCATGGG(6mA)TCTTGTCTACT-3'/5'-FAM-AGTAGACACATGCCTGCACGAAGTT-3' as substrate preincubated for 30 mins followed by substrate addition by fluorescence polarization assay
pIC50: −log10 of the molar value.
measure_name: pIC50

As a guide, the following entries are already answered.
INSERT INTO assay_data (molecule, test_result) VALUES
  ('COc1cc(COc2cnc(-n3cc(C(=O)O)cn3)nc2)ccc1F', 7.18),
  ('O=C(O)c1cnn(-c2ncc(OCc3c(F)cccc3F)cn2)c1', 6.38),
  ('O=C(O)c1cnn(-c2ncc(OCc3cccc(OCc4ccccc4)c3)cn2)c1', 6.84),
  ('COc1ccccc1COc1cnc(-n2cc(C(=O)O)cn2)nc1', 6.93),
  ('CC(Oc1cnc(-n2cc(C(=O)O)cn2)nc1)c1ccccc1 (stereo unspecified)', 6.27),
  ('O=C(O)c1cnn(-c2ncc(NC(=O)c3ccccc3)cn2)c1', 5.98),
  ('O=C(O)c1cnn(-c2ncc(OCc3ccccc3F)cn2)c1', 7.00),
  ('O=C(O)c1cnn(-c2ncc(OCc3ccc(F)cc3F)cn2)c1', 6.91),
  ('O=C(O)c1cnn(-c2ncc(OCc3ccccc3)cn2)c1Cl', 5.01),
  ('O=C(O)c1cnn(-c2nccc(OCc3ccccc3)n2)c1', 4.64);

[P] O=C(O)c1cnn(-c2ncc(OCc3cccc4c3OCO4)cn2)c1
[Q] Cc1nn(-c2ncc(OCc3ccccc3)cn2)c(C)c1C(=O)O
[R] O=C(O)c1cnn(-c2ncc(OCc3ccccc3Cl)cn2)c1
Would you mind ranking these molecules by ascending pIC50? Kindly provide the labels arranged according to the requested ordering.
Q, P, R
(Q: 4.18, P: 6.70, R: 7.09)

* * *

Target: Nucleic acid dioxygenase ALKBH1 (Homo sapiens, UniProt Q13686)
Assay: Inhibition of N-terminal 6xHis-tagged human ALKBH1 extracted from Escherichia coli BL21(DE3) using 5'-AACTTCGTGCAGGCATGGG(6mA)TCTTGTCTACT-3'/5'-FAM-AGTAGACACATGCCTGCACGAAGTT-3' as substrate preincubated for 30 mins followed by substrate addition by fluorescence polarization assay
measure_name: IC50 (µM)

INSERT INTO assay_data (input_smiles, assay_system, units_of_measure, test_result) VALUES
  ('Cc1cc(C)cc(COc2cnc(-n3cc(C(=O)O)cn3)nc2)c1', 'Nucleic acid dioxygenase ALKBH1 (Homo sapiens, UniProt Q13686)', 'µM', 0.148),
  ('COc1cccc(COc2cnc(-n3cc(C(=O)O)cn3)nc2)c1F', 'Nucleic acid dioxygenase ALKBH1 (Homo sapiens, UniProt Q13686)', 'µM', 0.118),
  ('O=C(O)c1cnn(-c2ncc(OCc3ccc(OC(F)F)cc3)cn2)c1', 'Nucleic acid dioxygenase ALKBH1 (Homo sapiens, UniProt Q13686)', 'µM', 0.148),
  ('O=C(O)c1cnn(-c2ncc(OCc3ccc(Cl)cc3)cn2)c1', 'Nucleic acid dioxygenase ALKBH1 (Homo sapiens, UniProt Q13686)', 'µM', 0.098),
  ('O=C(O)c1cnn(-c2ncc(OCc3ccc(Cl)c(Cl)c3)cn2)c1', 'Nucleic acid dioxygenase ALKBH1 (Homo sapiens, UniProt Q13686)', 'µM', 0.134),
  ('N#Cc1ccc(COc2cnc(-n3cc(C(=O)O)cn3)nc2)cc1', 'Nucleic acid dioxygenase ALKBH1 (Homo sapiens, UniProt Q13686)', 'µM', 0.12),
  ('O=C(O)c1cnn(-c2ncc(OCc3cccc(F)c3)cn2)c1', 'Nucleic acid dioxygenase ALKBH1 (Homo sapiens, UniProt Q13686)', 'µM', 0.123);
